src = paper PMC6123649

Target: ShHTL7 (Striga hermonthica, UniProt A0A0M3PNA2)
Sequence (A0A0M3PNA2 1-271): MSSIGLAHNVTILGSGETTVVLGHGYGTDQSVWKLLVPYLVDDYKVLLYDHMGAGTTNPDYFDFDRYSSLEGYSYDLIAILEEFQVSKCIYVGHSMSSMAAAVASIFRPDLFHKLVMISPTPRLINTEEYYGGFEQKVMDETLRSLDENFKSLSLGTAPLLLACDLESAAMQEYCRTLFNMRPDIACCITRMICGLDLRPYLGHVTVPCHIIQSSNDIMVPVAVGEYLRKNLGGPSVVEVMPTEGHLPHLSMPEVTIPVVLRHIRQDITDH
Assay: Intrinsic tryptophan fluorescence assay
Type: binding
REPORTED_ENDPOINT: Kd (nM)
Give the quantity in nM, number only.

INPUT: Find Kd (ShHTL7 (Striga hermonthica, UniProt A0A0M3PNA2)) for the entry CC1=CC(O/C=C2/C(=O)OC3c4ccccc4CC23)OC1=O (stereo not shown)
OUTPUT: 390

* * *

Target: ShHTL7 (Striga hermonthica)
Experiment: Yoshimulactone Green (YLG) hydrolysis competition assay
Assay type: biochemical
Form field: pIC50 (one value per entry).
Entry type: numeric. Quantity: pIC50, the -log10 of concentration in molar units.

// solved cases for pIC50 follow
CC(C)(C)CC(C)(C)c1ccc(OCCO)cc1 [4-ter-octylphenol Monoethoxylate, 4‐ter‐octylphenol monoethoxylate] = 5.03
CC1=CC(O/C=C2/C(=O)OC3c4ccccc4CC23)OC1=O (stereo not shown) = 6.06
CC(C)(C)CC(C)(C)c1ccc(OCCOCCO)cc1 [4-ter-octylphenol diethoxylate, 4‐ter‐octylphenol diethoxylate] = 5.13

INPUT: Tell me the measured pIC50 of CC(C)(C)CC(C)(C)c1ccc(OCC(=O)O)cc1 , please.
OUTPUT: 5.83
